Test system: stress induced depressed ("coping") behavior
Assay Explanation: Stress Induced Depressed Behavior Test
Type: in vivo
Condition Context: rats, intraperitoneally at 5-20 mg/kg; warm (44.5° C.) surface for 15 minutes; high ratio = active
Counter-ions that a name gives are not always drawn.
# Ratio onset/duration annotations
Readout Kind: Ratio onset/duration

# Molecule, System Name, Number
records = [
    ("Clc1ccc([C@@]23CNC[C@@H]2[C@@H]2CC[C@H]3C2)cc1Cl (relative stereo) [hydrochloride]", "stress induced depressed (\"coping\") behavior", 76),
    ("CN1C[C@@H]2[C@@H]3CC[C@@H](C3)[C@]2(c2ccc(Cl)cc2)C1 (relative stereo)", "stress induced depressed (\"coping\") behavior", 20),
    ("CN1C[C@@H]2C3CCC(CC3)[C@]2(c2ccc(Cl)c(Cl)c2)C1 (relative stereo)", "stress induced depressed (\"coping\") behavior", 83),
    ("CCN1C[C@@H]2C3CCC(CC3)[C@]2(c2ccc(Cl)c(Cl)c2)C1 (relative stereo)", "stress induced depressed (\"coping\") behavior", 66),
    ("CN1C[C@@H]2[C@@H]3CC[C@@H](C3)[C@]2(c2ccc(Cl)c(Cl)c2)C1 (relative stereo) [hydrochloride]", "stress induced depressed (\"coping\") behavior", 59),
    ("CN1C[C@@H]2[C@@H]3C=C[C@@H](C3)[C@]2(c2cccc(Cl)c2)C1 (relative stereo)", "stress induced depressed (\"coping\") behavior", 13),
]
